# Tested on: Sonic hedgehog protein (Shh)
# Measurement description: small-molecule binders of Shh protein, primary screen, biochemical, small-molecule microarray, 635/667 nm fluorescence (AID 1151);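 note: Shh protein binding to compounds spotted on small-molecule microarray slides; score combines spot fluorescence intensity with signal-to-noise across triplicate slides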
# Conditions used: small-molecule microarray binding, 635 nm fluorescence; higher = more signal
Quick list: composite z-score per entry.
Endpoint: composite z-score

- Compound: "O=C1C=CC(=O)[C@@H]2CC(COc3ccccc3)=C3[C@@H](CCc4ccccc4)OB(O)C[C@@H]3[C@H]12"
  Readout number: 1.3
- Compound: "COc1ccc([Si](C)(C)[C@@H]2[C@@H](CCn3cc([C@H](O)c4ccccc4)nn3)O[C@]3(C(=O)N(Cc4ccc(N5C(=O)c6cccc7cccc5c67)cc4)c4ccccc43)[C@H]2C)cc1"
  Readout number: -0.0774
- Compound: "CCCCCN1CC=CC23O[C@@H]4/C=C\\CCCOC(=O)C4[C@H]2C(=O)N(CCCCCCO)[C@@H]3C1=O (stereo partly drawn)"
  Readout number: 0.124
- Compound: "COC(=O)[C@]1(Cc2ccccc2N=[N+]=[N-])N=C(c2ccc(OCCCO)cc2)O[C@@H]1c1ccccc1N=[N+]=[N-]"
  Readout number: 0.765
- Compound: "CCOC(=O)[C@H]1C[C@H]2O[C@@]23C[C@H]1C(=O)N1CCCC1[C@@H]3O[Si](C)(C)C(C)(C)C (stereo partly drawn)"
  Readout number: 1.1
- Compound: "CC(=O)Nc1cc(Br)ccc1C(=O)O"
  Readout number: -0.402
- Compound: "CN(C)C(=O)[C@@]1(CCC(=O)OC(C)(C)C)N=C(c2ccc(OCCCO)cc2)O[C@H]1c1ccccc1"
  Readout number: -0.467
- Compound: "COC(=O)C[C@@H]1C[C@H](C)[C@]2(O1)C(=O)N(Cc1ccccc1)c1ccc(NC(C)=O)cc12"
  Readout number: 0.034
